// data source = BigSolDB 2.1

# test settings: in water, 357.75 K
endpoint: solubility (mole fraction)

[in] Given the compound CCCCCC[n+]1csc2ccccc21.F[P-](F)(F)(F)(F)F , what is its reported solubility (mole fraction)?
[out] 0.000595

* * *

# test settings: in water, 367.9 K
endpoint: solubility (mole fraction)

[in] Given the molecule CCCC[n+]1csc2ccccc21.F[P-](F)(F)(F)(F)F , what is its reported solubility (mole fraction)?
[out] 0.00198

* * *

# test settings: in furfural, 272.2 K
endpoint: solubility (mole fraction)
API doc: respond with a numeric literal and nothing else, no unit.

[in] Given the molecule CCCCCCC[n+]1csc2ccccc21.F[P-](F)(F)(F)(F)F , what is its reported solubility (mole fraction)?
[out] 0.27

* * *

# test settings: in water, 288.1 K
endpoint: solubility (mole fraction)
API doc: respond with a numeric literal and nothing else, no unit.

[in] Given the molecule CCCC[n+]1csc2ccccc21.F[P-](F)(F)(F)(F)F , what is its reported solubility (mole fraction)?
[out] 0.000113

* * *

# test settings: in furfural, 331.87 K
endpoint: solubility (mole fraction)
API doc: respond with a numeric literal and nothing else, no unit.

[in] Given the molecule CCCCCCC[n+]1csc2ccccc21.F[P-](F)(F)(F)(F)F , what is its reported solubility (mole fraction)?
[out] 0.644

* * *

# test settings: in water, 278.15 K
endpoint: solubility (mole fraction)
API doc: respond with a numeric literal and nothing else, no unit.

CCCCC[n+]1csc2ccccc21.F[P-](F)(F)(F)(F)F 2.36e-05
CCCCCCCC[n+]1csc2ccccc21.F[P-](F)(F)(F)(F)F 1.79e-05
CCCC[n+]1csc2ccccc21.F[P-](F)(F)(F)(F)F 6.76e-05

[in] Given the compound CCCCCCC[n+]1csc2ccccc21.F[P-](F)(F)(F)(F)F , what is its reported solubility (mole fraction)?
[out] 2.26e-05

[in] Given the compound CCCCCC[n+]1csc2ccccc21.F[P-](F)(F)(F)(F)F , what is its reported solubility (mole fraction)?
[out] 3.17e-05

* * *

# test settings: in furfural, 318.86 K
endpoint: solubility (mole fraction)
API doc: respond with a numeric literal and nothing else, no unit.

[in] Given the compound CCCCCCCC[n+]1csc2ccccc21.F[P-](F)(F)(F)(F)F , what is its reported solubility (mole fraction)?
[out] 0.786

* * *

# test settings: in furfural, 323.8 K
endpoint: solubility (mole fraction)
API doc: respond with a numeric literal and nothing else, no unit.

[in] Given the compound CCCCCCCC[n+]1csc2ccccc21.F[P-](F)(F)(F)(F)F , what is its reported solubility (mole fraction)?
[out] 0.829

* * *

# test settings: in water, 348.45 K
endpoint: solubility (mole fraction)
API doc: respond with a numeric literal and nothing else, no unit.

[in] Given the molecule CCCCCCC[n+]1csc2ccccc21.F[P-](F)(F)(F)(F)F , what is its reported solubility (mole fraction)?
[out] 0.000311

* * *

# test settings: in water, 368.05 K
endpoint: solubility (mole fraction)
API doc: respond with a numeric literal and nothing else, no unit.

[in] Given the compound CCCCC[n+]1csc2ccccc21.F[P-](F)(F)(F)(F)F , what is its reported solubility (mole fraction)?
[out] 0.00109

* * *

# test settings: in furfural, 313.5 K
endpoint: solubility (mole fraction)
API doc: respond with a numeric literal and nothing else, no unit.

[in] Given the compound CCCCC[n+]1csc2ccccc21.F[P-](F)(F)(F)(F)F , what is its reported solubility (mole fraction)?
[out] 0.151

* * *

# test settings: in furfural, 289.48 K
endpoint: solubility (mole fraction)
API doc: respond with a numeric literal and nothing else, no unit.

[in] Given the compound CCCCCCCC[n+]1csc2ccccc21.F[P-](F)(F)(F)(F)F , what is its reported solubility (mole fraction)?
[out] 0.471

* * *

# test settings: in water, 313.25 K
endpoint: solubility (mole fraction)
API doc: respond with a numeric literal and nothing else, no unit.

[in] Given the compound CCCCC[n+]1csc2ccccc21.F[P-](F)(F)(F)(F)F , what is its reported solubility (mole fraction)?
[out] 0.00011

* * *

# test settings: in furfural, 305.08 K
endpoint: solubility (mole fraction)
API doc: respond with a numeric literal and nothing else, no unit.

[in] Given the compound CCCCCC[n+]1csc2ccccc21.F[P-](F)(F)(F)(F)F , what is its reported solubility (mole fraction)?
[out] 0.345

* * *

# test settings: in water, 338.15 K
endpoint: solubility (mole fraction)
API doc: respond with a numeric literal and nothing else, no unit.

[in] Given the molecule CCCCCCCC[n+]1csc2ccccc21.F[P-](F)(F)(F)(F)F , what is its reported solubility (mole fraction)?
[out] 0.000163

* * *

# test settings: in water, 303.15 K
endpoint: solubility (mole fraction)

[in] Given the compound CCCCCC[n+]1csc2ccccc21.F[P-](F)(F)(F)(F)F , what is its reported solubility (mole fraction)?
[out] 7.64e-05

* * *

# test settings: in furfural, 277.25 K
endpoint: solubility (mole fraction)

[in] Given the molecule CCCCC[n+]1csc2ccccc21.F[P-](F)(F)(F)(F)F , what is its reported solubility (mole fraction)?
[out] 0.0866

* * *

# test settings: in furfural, 324.5 K
endpoint: solubility (mole fraction)
API doc: respond with a numeric literal and nothing else, no unit.

[in] Given the compound CCCC[n+]1csc2ccccc21.F[P-](F)(F)(F)(F)F , what is its reported solubility (mole fraction)?
[out] 0.364

* * *

# test settings: in furfural, 322.88 K
endpoint: solubility (mole fraction)
API doc: respond with a numeric literal and nothing else, no unit.

[in] Given the compound CCCCCCC[n+]1csc2ccccc21.F[P-](F)(F)(F)(F)F , what is its reported solubility (mole fraction)?
[out] 0.561

* * *

# test settings: in water, 357.9 K
endpoint: solubility (mole fraction)

[in] Given the molecule CCCC[n+]1csc2ccccc21.F[P-](F)(F)(F)(F)F , what is its reported solubility (mole fraction)?
[out] 0.00142

* * *

# test settings: in furfural, 335.04 K
endpoint: solubility (mole fraction)
API doc: respond with a numeric literal and nothing else, no unit.

[in] Given the compound CCCCC[n+]1csc2ccccc21.F[P-](F)(F)(F)(F)F , what is its reported solubility (mole fraction)?
[out] 0.239

* * *

# test settings: in water, 358.05 K
endpoint: solubility (mole fraction)
API doc: respond with a numeric literal and nothing else, no unit.

[in] Given the compound CCCCCCCC[n+]1csc2ccccc21.F[P-](F)(F)(F)(F)F , what is its reported solubility (mole fraction)?
[out] 0.000235

* * *

# test settings: in furfural, 313.72 K
endpoint: solubility (mole fraction)
API doc: respond with a numeric literal and nothing else, no unit.

[in] Given the compound CCCCCCC[n+]1csc2ccccc21.F[P-](F)(F)(F)(F)F , what is its reported solubility (mole fraction)?
[out] 0.487

* * *

# test settings: in water, 330.15 K
endpoint: solubility (mole fraction)
API doc: respond with a numeric literal and nothing else, no unit.

[in] Given the compound CCCCCC[n+]1csc2ccccc21.F[P-](F)(F)(F)(F)F , what is its reported solubility (mole fraction)?
[out] 0.000235

* * *

# test settings: in water, 353.15 K
endpoint: solubility (mole fraction)
API doc: respond with a numeric literal and nothing else, no unit.

Study these solved cases before continuing.
CCCC[n+]1csc2ccccc21.F[P-](F)(F)(F)(F)F 0.00116
CCCCCCC[n+]1csc2ccccc21.F[P-](F)(F)(F)(F)F 0.000357

Now let's try a different one.
[in] Given the compound CCCCC[n+]1csc2ccccc21.F[P-](F)(F)(F)(F)F , what is its reported solubility (mole fraction)?
[out] 0.000466

* * *

# test settings: in water, 352.95 K
endpoint: solubility (mole fraction)
API doc: respond with a numeric literal and nothing else, no unit.

[in] Given the compound CCCCCC[n+]1csc2ccccc21.F[P-](F)(F)(F)(F)F , what is its reported solubility (mole fraction)?
[out] 0.000543

* * *

# test settings: in furfural, 330.95 K
endpoint: solubility (mole fraction)
API doc: respond with a numeric literal and nothing else, no unit.

[in] Given the compound CCCCCC[n+]1csc2ccccc21.F[P-](F)(F)(F)(F)F , what is its reported solubility (mole fraction)?
[out] 0.55

* * *

# test settings: in furfural, 304.21 K
endpoint: solubility (mole fraction)
API doc: respond with a numeric literal and nothing else, no unit.

[in] Given the compound CCCCCCC[n+]1csc2ccccc21.F[P-](F)(F)(F)(F)F , what is its reported solubility (mole fraction)?
[out] 0.433

* * *

# test settings: in water, 293.05 K
endpoint: solubility (mole fraction)
API doc: respond with a numeric literal and nothing else, no unit.

[in] Given the compound CCCC[n+]1csc2ccccc21.F[P-](F)(F)(F)(F)F , what is its reported solubility (mole fraction)?
[out] 0.000139

* * *

# test settings: in water, 348.15 K
endpoint: solubility (mole fraction)
API doc: respond with a numeric literal and nothing else, no unit.

CCCCC[n+]1csc2ccccc21.F[P-](F)(F)(F)(F)F 0.000356

[in] Given the compound CCCCCCCC[n+]1csc2ccccc21.F[P-](F)(F)(F)(F)F , what is its reported solubility (mole fraction)?
[out] 0.000196
